The origin of these recorded values is paper PMC9363231.

# Target under test: HLA-DRB1*01:01 (Homo sapiens, UniProt P01903+P01911, A100R/D57E/F55L/F60I/F76Y/I96L/L162R/M171V/P40L/Q125E/R42F/V115G/Y59C)
# Measurement protocol: biochemical
# Type: binding
Threshold 4 µM. IC50 below it: Condition met. IC50 at it or above: Condition not met.

# Compound, Class name
records = [
    ("CC(C)[C@H](NC(=O)CNC(=O)[C@H](Cc1ccc(O)cc1)NC(=O)[C@H](CS)NC(=O)[C@H](CCCCN)NC(=O)[C@H](Cc1ccccc1)NC(=O)[C@@H](NC(=O)[C@H](CO)NC(=O)[C@H](Cc1ccccc1)NC(=O)[C@H](CO)NC(=O)[C@H](C)NC(=O)[C@@H](N)CO)[C@@H](C)O)C(=O)N[C@@H](CO)C(=O)N1CCC[C@H]1C(=O)N[C@H](C(=O)O)[C@@H](C)O [peptide 75]", "Condition not met"),
    ("CC(C)C[C@H](NC(=O)[C@H](C)NC(=O)[C@H](CC(C)C)NC(=O)[C@H](CC(C)C)NC(=O)[C@@H](NC(=O)[C@H](CCC(N)=O)NC(=O)[C@H](Cc1ccccc1)NC(=O)[C@H](CCCNC(=N)N)NC(=O)[C@@H](N)[C@@H](C)O)[C@@H](C)O)C(=O)N[C@@H](Cc1c[nH]cn1)C(=O)N[C@@H](CCCNC(=N)N)C(=O)N[C@@H](CO)C(=O)N[C@@H](Cc1ccc(O)cc1)C(=O)N[C@@H](CC(C)C)C(=O)N[C@H](C(=O)O)[C@@H](C)O [peptide 48]", "Condition met"),
    ("CC[C@H](C)[C@H](NC(=O)[C@H](CCCNC(=N)N)NC(=O)[C@H](CCCCN)NC(=O)[C@H](CCCNC(=N)N)NC(=O)[C@H](CC(N)=O)NC(=O)[C@H](Cc1c[nH]c2ccccc12)NC(=O)[C@H](C)NC(=O)[C@H](Cc1ccc(O)cc1)NC(=O)[C@@H](NC(=O)[C@H](CO)NC(=O)[C@H](C)NC(=O)[C@H](Cc1ccccc1)NC(=O)[C@@H](N)CCCNC(=N)N)C(C)C)C(=O)N[C@@H](CO)C(=O)N[C@@H](CC(N)=O)C(=O)O", "Condition not met"),
    ("CC[C@H](C)[C@H](NC(=O)[C@H](Cc1ccccc1)NC(=O)[C@@H](N)CO)C(=O)N[C@@H](CCC(=O)O)C(=O)N[C@@H](CC(=O)O)C(=O)N[C@@H](CC(C)C)C(=O)N[C@@H](CC(C)C)C(=O)N[C@@H](Cc1ccccc1)C(=O)N[C@@H](CC(N)=O)C(=O)N[C@@H](CCCCN)C(=O)N[C@H](C(=O)N[C@H](C(=O)N[C@@H](CC(C)C)C(=O)N[C@@H](C)C(=O)N[C@@H](CC(=O)O)C(=O)O)[C@@H](C)O)C(C)C [peptide 164]", "Condition not met"),
    ("CC(C)C[C@H](NC(=O)[C@H](CCCNC(=N)N)NC(=O)[C@H](Cc1ccc(O)cc1)NC(=O)[C@H](CC(C)C)NC(=O)[C@@H](N)Cc1ccc(O)cc1)C(=O)N[C@@H](Cc1ccccc1)C(=O)N[C@@H](CCCNC(=N)N)C(=O)N[C@@H](CCCCN)C(=O)N[C@@H](CO)C(=O)N[C@@H](CC(N)=O)C(=O)N[C@@H](CC(C)C)C(=O)N[C@@H](CCCCN)C(=O)N1CCC[C@H]1C(=O)N[C@@H](Cc1ccccc1)C(=O)N[C@@H](CCC(=O)O)C(=O)O [peptide 91]", "Condition not met"),
    ("CC[C@H](C)[C@H](NC(=O)CN)C(=O)N[C@@H](Cc1ccc(O)cc1)C(=O)N[C@@H](CCC(N)=O)C(=O)N[C@H](C(=O)N[C@@H](CO)C(=O)N[C@@H](CC(N)=O)C(=O)N[C@@H](Cc1ccccc1)C(=O)N[C@@H](CCCNC(=N)N)C(=O)N[C@H](C(=O)N[C@@H](CCC(N)=O)C(=O)N1CCC[C@H]1C(=O)N[C@H](C(=O)N[C@@H](CCC(=O)O)C(=O)N[C@@H](CO)C(=O)O)[C@@H](C)O)C(C)C)[C@@H](C)O", "Condition met"),
]
